Molecular target: human mesothelin (MSLN) (human) (UniProt Q13421)
Sequence (Q13421 296-606 limits assumed): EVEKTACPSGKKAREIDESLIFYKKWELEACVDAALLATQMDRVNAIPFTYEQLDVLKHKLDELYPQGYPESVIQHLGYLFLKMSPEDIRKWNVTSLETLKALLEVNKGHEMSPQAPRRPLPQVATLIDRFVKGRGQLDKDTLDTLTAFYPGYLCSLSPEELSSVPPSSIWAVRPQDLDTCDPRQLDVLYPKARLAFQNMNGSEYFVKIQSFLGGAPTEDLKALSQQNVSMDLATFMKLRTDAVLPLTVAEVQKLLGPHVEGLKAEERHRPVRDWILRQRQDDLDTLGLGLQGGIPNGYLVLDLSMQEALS
Assay: cell-based or functional assay
metric name: log10(TDCC Average EC50 [M], OVCAR8 cells, human T cells) (log10 of the value in M)
Would you kindly interpret these values as log10 of TDCC Average EC50 [M], OVCAR8 cells, human T cells expressed in M?

Ask | Requested field: log10(TDCC Average EC50 [M], OVCAR8 cells, human T cells). Item: MSLN targeting trispecific protein 6H2 (protein, part only; not given: Albumin and CD3 binders, linkers, part only) chain, part: QVQLVESGGGLVQAGGSLRLSCAASGRTLSRYAMGWFRQAPGKERQFVAAISRSGGTTRYSDSVKGRFTISRDNAANTFYLQMNNLRPDDTAVYYCNVRRRGWGRTLEYWGQGTQVTVSSHHHHHH
Reply | -8.70

Ask | Now give it for MSLN targeting trispecific protein 5G2 (protein, part only; not given: Albumin and CD3 binders, linkers, part only) chain, part: QVQLVESGGGLVQAGGSLRLSCAASGSTFGNKPMGWYRQAPGKQRELVAVISSDGGSTRYAALVKGRFTISRDNAKNTVYLQMESLVAEDTAVYYCNALRTYYLNDPVVFSWGQGTQVTVSSHHHHHH too.
Reply | -8.44

Ask | Now give it for MSLN targeting trispecific protein 2D1 (protein, part only; not given: Albumin and CD3 binders, linkers, part only) chain, part: QVQLVESGGGLVQAGGSLRLSCAASTTSSINSMSWYRQAQGKQREPVAVITDRGSTSYADSVKGRFTISRDNAKNTVYLQMNSLKPEDTAIYTCHVIADWRGYWGQGTQVTVSSHHHHHH too.
Reply | -10.28

Ask | Now give it for MSLN targeting trispecific protein 5D2 (protein, part only; not given: Albumin and CD3 binders, linkers, part only) chain, part: QVQLGESGGGLVQAGGSLRLSCAASGSIFSPNAMIWHRQAPGKQREPVASINSSGSTNYGDSVKGRFTVSRDIVKNTMYLQMNSLKPEDTAVYYCSYSDFRRGTQYWGQGTQVTVSSHHHHHH too.
Reply | -10.85

Ask | Now give it for MSLN targeting trispecific protein 5F2 (protein, part only; not given: Albumin and CD3 binders, linkers, part only) chain, part: QVQLVESGGGLVQAGGSLRLSCAASGSTFRIRVMRWYRQAPGTERDLVAVISGSSTYYADSVKGRFTISRDNAKNTLYLQMNNLKPEDTAVYYCNADDSGIARDYWGQGTQVTVSSHHHHHH too.
Reply | -11.28

Ask | Now give it for MSLN targeting trispecific protein 5D4 (protein, part only; not given: Albumin and CD3 binders, linkers, part only) chain, part: QVQLVESGGGLVQAGGSLRLSCVASGRTDRITTMGWYRQAPGKQRELVATISNRGTSNYANSVKGRFTISRDNAKNTVYLQMNSLKPEDTAVYYCNARKWGRNYWGQGTQVTVSSHHHHHH too.
Reply | -9.00

Ask | Now give it for MSLN targeting trispecific protein 3F2 (protein, part only; not given: Albumin and CD3 binders, linkers, part only) chain, part: QVQIVESGGGLVQAGGSLRLSCVASGLTYSIVAVGWYRQAPGKEREMVADISPVGNTNYADSVKGRFTISKENAKNTVYLQMNSLKPEDTAVYYCHIVRGWLDERPGPGPIVYWGQGTQVTVSSHHHHHH too.
Reply | -7.62

Ask | Now give it for MSLN targeting trispecific protein 12D1 (protein, part only; not given: Albumin and CD3 binders, linkers, part only) chain, part: QVRLVESGGGLVQAGGSLRLSCAASISAFRLMSVRWYRQDPSKQREWVATIDQLGRTNYADSVKGRFAISKDSTRNTVYLQMNMLRPEDTAVYYCNAGGGPLGSRWLRGRHWGQGTQVTVSSHHHHHH too.
Reply | -8.96
